# Assay Info: Approximate solubility of TPA023B in organic solvents
# Type: physicochemical
# Measurement Conditions: organic solvent or mixture, thermodynamic from solid; 1,4-Dioxane, 50° C.
# Procedure: About 25 mg of compound (TPA023B) was added to a 2.0 mL vial containing 0.5 mL of each organic solvent in Table 14, which was then sealed. The mixtures were stirred-mixed at 800 rpm, RT (25° C.) for 4 hours. After that, if the compound was not completely dissolved in the solvent, the mixture was then stirred-mixed at 800 rpm, 50° C. overnight. If the final mixture was clear solution, the solution would be evaporated by vacuum drying oven at 35° C. and the resulted solid would be checked by XRPD. […]
Assay Endpoint: solubility

Need solubility of CC(C)(O)c1cnn2c(-c3ccc(F)c(-c4c(F)cccc4C#N)c3)cnc2n1 [TPA023B] , thanks.
> 50 mg/mL

---

Attribute: solubility at 24 h
# Assay Info: Solubility in aqueous buffers and simulated fluids, 24 h, HPLC
# Type: physicochemical
# Measurement Conditions: 22.5 °C, thermodynamic from solid; Purified water, initial pH 7.02; ~20-25° C., ~24 h; target 2 mg/mL; read-out: Measured Conc. (solubility)
Number in µg/mL, nothing else.

CC(C)(O)c1cnn2c(-c3ccc(F)c(-c4c(F)cccc4C#N)c3)cnc2n1.O=P(O)(O)O [Phosphate Polymorphic Form A]
0.4

Consider the record given below.
Need solubility at 24 h of CC(C)(O)c1cnn2c(-c3ccc(F)c(-c4c(F)cccc4C#N)c3)cnc2n1 [Free Base Polymorphic Form A] , thanks.
0.14

---

# Assay Info: Pharmacokinetics in rats
# Type: in vivo, Sprague-dawley rats
# Measurement Conditions: male, Sprague-Dawley, plasma; rat, IV 1 mg/kg, mean
Assay Endpoint: AUC(0-inf) (ng·h/mL)
Number in ng·h/mL, nothing else.

Need AUC(0-inf) of CC(C)(O)c1cnn2c(-c3ccc(F)c(-c4c(F)cccc4C#N)c3)cnc2n1.O=P(O)(O)O [Phosphate Polymorphic Form A] , thanks.
12100

---

# Assay Info: Approximate solubility of TPA023B Phosphate in solvents (stepwise solvent addition)
# Format: physicochemical
# Measurement Conditions: organic solvent or mixture, thermodynamic from solid; Isopropanol, RT
Assay Endpoint: solubility

Need solubility of CC(C)(O)c1cnn2c(-c3ccc(F)c(-c4c(F)cccc4C#N)c3)cnc2n1.O=P(O)(O)O [Phosphate Polymorphic Form A] , thanks.
< 8000 µg/mL

---

# Assay Info: Approximate solubility of TPA023B in organic solvents
# Type: physicochemical
# Measurement Conditions: 25 °C, organic solvent or mixture, thermodynamic from solid; DMSO, RT
Assay Endpoint: solubility at 4 h

Need solubility at 4 h of CC(C)(O)c1cnn2c(-c3ccc(F)c(-c4c(F)cccc4C#N)c3)cnc2n1 [TPA023B] , thanks.
> 50 mg/mL

---

# Assay Info: Canine pharmacokinetics
# Assay type: in vivo, Beagle dogs
# Measurement Conditions: male, beagle, plasma; dog, IV 1 mg/kg, mean
Assay Endpoint: clearance (L/h/kg)
Number in L/h/kg, nothing else.

Need clearance of CC(C)(O)c1cnn2c(-c3ccc(F)c(-c4c(F)cccc4C#N)c3)cnc2n1.O=P(O)(O)O [Phosphate Polymorphic Form A] , thanks.
0.151

---

# Assay Info: Approximate solubility of TPA023B Phosphate in solvents (stepwise solvent addition)
# Assay type: physicochemical
# Measurement Conditions: water, thermodynamic from solid; H2O, RT
Assay Endpoint: solubility

Need solubility of CC(C)(O)c1cnn2c(-c3ccc(F)c(-c4c(F)cccc4C#N)c3)cnc2n1.O=P(O)(O)O [Phosphate Polymorphic Form A] , thanks.
< 2 mg/mL

// provenance: patent US11542263B2
